Test system: UO-31 renal
protocol: NCI-60 one-dose screen, 48 h
study.conditions: 10 µM unless noted
This is part of a sample that, as a whole, favours compounds with a hit. Of some 83,000 tested, about 20% had one in any assay. Calls of active or inactive are those of the source. The calls were made as follows: active = growth percent below 10; inactive = the rest.
Hello, when you answer, please use one of the following outcomes: Yes for active, No for inactive

Look over these answered cases.
# compound, group
measured = [
    ("COc1ccc(/C=N/NC(=O)c2cnn3c2NC(c2ccccc2)C3)cc1OC (stereo unspecified)", "No"),
    ("COc1ccc(C(=O)c2cc(C)c(OC)c(C)c2)c(OC)c1N(C(=O)CCl)C(=O)CCl", "No"),
    ("COc1cc(/C=N/O)nc(-c2ccccn2)c1", "Yes"),
]

Incoming: Recorded test outcome, item N#CC1=C(N)Oc2c(ccc3ccccc23)C1c1ccccc1Cl (stereo unspecified)
Outgoing: No

Incoming: Tell me the assay call for `CC(=O)[C@H]1CCC/C=C/[C@@H]2C[C@H](O)C[C@H]2[C@H](O)/C=C/C(=O)O1` please.
Outgoing: Yes

Incoming: Please share the test call associated with `N#Cc1c(NCc2ccccc2I)sc2c1CCCCC2` .
Outgoing: No

----------
System: OVCAR-3 ovarian
protocol: NCI-60 one-dose screen, 48 h (100 = growth as untreated, 0 = no growth, -100 = all killed)
study.conditions: 10 µM unless noted
Compounds without any hit were thinned out: in the full panel of roughly 83,000, 20% have a hit. Activity calls are given as the source filed them. The calls were made as follows: active = growth percent below 10; inactive = the rest.
recorded.endpoint: growth

# smiles.string, result
measured = [
    ("CC[C@]12C=CCN3CC[C@@]4(c5cc(NC(=O)CCC(=O)O[C@H]6CC[C@H]7[C@@H]8CCC9=CC(=O)CC[C@@H]9[C@H]8CC[C@]67C)c(OC)cc5N(C)[C@H]4[C@@](O)(C(=O)OC)[C@@H]1OC(C)=O)[C@@H]32", "80.8% (inactive)"),
    ("O=Cc1ccc(-c2cn3ccnc3c(-c3ccc4ncn(Cc5ccccc5)c4c3)n2)cc1", "76.3% (inactive)"),
    ("COc1cc(/C(C)=C(\\c2ccc(Cl)cc2)c2ccc(OCCN(C)C)cc2)ccc1F", "59.4% (inactive)"),
    ("Cn1ccnc1C(=O)/C=C/c1ccc(CC(=O)Nc2ccc(F)cc2)cc1", "6.19% (active)"),
]

Here is another compound to look at.
Incoming: Look up and report measured growth for this entry: `CCOC(=O)CCN(CC(C)C)C(=S)Nc1ccccc1`
Outgoing: 124% (inactive)

----------
System: HCT-116 colon
protocol: NCI-60 one-dose screen, 48 h (100 = growth as untreated, 0 = no growth, -100 = all killed)
study.conditions: 10 µM unless noted
The panel holds about 83,000 compounds, 20% with a hit somewhere; the sample as a whole holds those more often.
recorded.endpoint: growth (%)
Numeric answer only, unit % assumed.

Incoming: Report growth, nothing else, for this compound: CC(=O)O[C@@H]1C2CCC3C(CC[C@@]4(C)C3CC[C@@H]4C(C)N(C)C)[C@@]2(C)CC[C@@H]1NC(=O)C=C(C)C (stereo partly specified)
Outgoing: -55

Incoming: Look up and report measured growth for this entry: `CC(=O)c1cc2c(N)c(C(=O)Nc3cccc4ccncc34)sc2nc1C`
Outgoing: 102

Incoming: Report growth, nothing else, for this compound: `O=C1c2ccccc2C(=O)c2c([N+](=O)[O-])ccc(Cl)c21`
Outgoing: 63.6

Incoming: Report measured growth; entry is `O=S(=O)(NCCNc1nccc(-c2c(-c3cccc(O)c3)nc3occn23)n1)c1ccc(C(F)(F)F)cc1`
Outgoing: 90.1

Incoming: Supply measured growth of `Cc1nc2sccn2c1-c1nc2sccn2c1/C=C1/C(=O)Nc2ccccc21` in your reply.
Outgoing: 24.1

Incoming: State, in one line, measured growth of `CCOC(=O)c1cc(C(=O)c2ccc(Br)cc2)n2ccc(/C=C/c3cc[n+](CC(=O)c4ccc(OC)cc4)cc3)cc12`
Outgoing: 37.7

Incoming: Consider the compound `COc1ccc(C(=O)c2nc3ccccc3n2CC(=O)c2ccc(Cl)cc2)cc1` . State its measured growth.
Outgoing: 10.3

Incoming: Supply measured growth of `CNC(=O)c1cccc(Cn2nc(C)c(NC(=O)c3ccc(COc4ccc(C(F)(F)F)cc4C)cc3)c2C)n1` in your reply.
Outgoing: 24.4

Incoming: State, in one line, measured growth of `Cc1cccc(-c2cn3ccnc3c(-c3ccc4ncn(Cc5ccccc5)c4c3)n2)c1`
Outgoing: 63.3

Incoming: Answer with the recorded growth for the compound listed here: `Cn1ccnc1C(=O)/C=C/c1ccc(CC(=O)Nc2ccc(F)cc2)cc1`
Outgoing: 4.94
